FYI, the data here is from ChEMBL document CHEMBL1148788.

Test System: 5-hydroxytryptamine receptor 3A (Homo sapiens, UniProt P46098)
Sequence (P46098 whole entry): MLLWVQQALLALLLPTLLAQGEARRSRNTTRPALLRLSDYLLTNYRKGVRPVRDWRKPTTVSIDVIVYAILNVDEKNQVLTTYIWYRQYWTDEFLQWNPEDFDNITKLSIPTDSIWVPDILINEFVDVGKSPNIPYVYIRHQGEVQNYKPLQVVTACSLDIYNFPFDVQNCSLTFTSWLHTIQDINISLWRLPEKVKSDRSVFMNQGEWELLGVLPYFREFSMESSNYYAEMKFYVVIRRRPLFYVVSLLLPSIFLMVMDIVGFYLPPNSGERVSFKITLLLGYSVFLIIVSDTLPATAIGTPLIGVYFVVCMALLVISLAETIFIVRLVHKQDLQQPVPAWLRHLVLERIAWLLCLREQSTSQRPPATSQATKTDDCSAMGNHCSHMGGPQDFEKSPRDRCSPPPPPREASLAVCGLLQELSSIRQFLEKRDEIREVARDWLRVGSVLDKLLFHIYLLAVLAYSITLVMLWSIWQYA
Assay Details: Displacement of [3H]GR65630 from human 5HT3A receptor in HEK293 cells
For each record, write down the corresponding pKi.
Give bare numbers, as −log10 of the molar value.

Example cases with answers are listed next.
Task item: Quote pKi reported for C/C=C/C[N+]12CC[C@@H]3[C@@H]4[C@@H]5[C@@H](OCC=C(C1)[C@@H]5C[C@@H]32)N1c2ccccc2[C@@]23CC[N+]5(C/C=C/C)CC6=CCO[C@H]([C@@H]([C@H]12)[C@H]6C[C@@H]35)N4c1ccccc1.[Br-].[Br-] (some centres not stated) please.
Reply: 4.82

Task item: Specify measured pKi for C1=C2C[N+]3(Cc4ccccc4)CC[C@@H]4[C@@H]5[C@H]([C@@H](OC1)N1c6ccccc6[C@@]67CC[N+]8(Cc9ccccc9)CC9=CCO[C@H]([C@@H]([C@H]16)[C@H]9C[C@@H]78)N5c1ccccc1)[C@H]2C[C@@H]43.[Br-].[Br-] (some centres not stated) .
Reply: 4.00

Task item: Return pKi (reported value) for this molecule: Brc1ccc(C[N+]23CC[C@@H]4[C@@H]5[C@@H]6[C@@H](OCC=C(C2)[C@@H]6C[C@@H]43)N2c3ccccc3[C@@]34CC[N+]6(Cc7ccc(Br)cc7)CC7=CCO[C@H]([C@@H]([C@H]23)[C@H]7C[C@@H]46)N5c2ccccc2)cc1.[Br-].[Br-] (some centres not stated)
Reply: 5.24

Provide pKi for all items below, preserving their order.
1. O=[N+]([O-])c1ccc(C[N+]23CC[C@@H]4[C@@H]5[C@@H]6[C@@H](OCC=C(C2)[C@@H]6C[C@@H]43)N2c3ccccc3[C@@]34CC[N+]6(Cc7ccc([N+](=O)[O-])cc7)CC7=CCO[C@H]([C@@H]([C@H]23)[C@H]7C[C@@H]46)N5c2ccccc2)cc1.[Br-].[Br-] (some centres not stated)
2. COc1ccc(C[N+]23CC[C@@H]4[C@@H]5/C(=C\N6c7ccccc7[C@@]78CC[N+]9(Cc%10ccc(OC)c(OC)c%10)CC%10=CCO[C@H]([C@@H]([C@H]67)[C@H]%10C[C@@H]89)N5c5ccccc5)[C@@H](C[C@@H]42)/C(=C\CO)C3)cc1OC.[Cl-].[Cl-] (some centres not stated)
3. COc1ccc(C[N+]23CC[C@@H]4[C@@H]5[C@@H]6[C@@H](OCC=C(C2)[C@@H]6C[C@@H]43)N2c3ccccc3[C@@]34CC[N+]6(Cc7ccc(OC)c(OC)c7)CC7=CCO[C@H]([C@@H]([C@H]23)[C@H]7C[C@@H]46)N5c2ccccc2)cc1OC.[Cl-].[Cl-] (some centres not stated)

Reply:
1: 4.64; 2: 4.00; 3: 4.55

###

Test System: Neuronal acetylcholine receptor; alpha4/beta4 (Rattus norvegicus, UniProt P09483+P12392)
Sequence (P09483 whole entry): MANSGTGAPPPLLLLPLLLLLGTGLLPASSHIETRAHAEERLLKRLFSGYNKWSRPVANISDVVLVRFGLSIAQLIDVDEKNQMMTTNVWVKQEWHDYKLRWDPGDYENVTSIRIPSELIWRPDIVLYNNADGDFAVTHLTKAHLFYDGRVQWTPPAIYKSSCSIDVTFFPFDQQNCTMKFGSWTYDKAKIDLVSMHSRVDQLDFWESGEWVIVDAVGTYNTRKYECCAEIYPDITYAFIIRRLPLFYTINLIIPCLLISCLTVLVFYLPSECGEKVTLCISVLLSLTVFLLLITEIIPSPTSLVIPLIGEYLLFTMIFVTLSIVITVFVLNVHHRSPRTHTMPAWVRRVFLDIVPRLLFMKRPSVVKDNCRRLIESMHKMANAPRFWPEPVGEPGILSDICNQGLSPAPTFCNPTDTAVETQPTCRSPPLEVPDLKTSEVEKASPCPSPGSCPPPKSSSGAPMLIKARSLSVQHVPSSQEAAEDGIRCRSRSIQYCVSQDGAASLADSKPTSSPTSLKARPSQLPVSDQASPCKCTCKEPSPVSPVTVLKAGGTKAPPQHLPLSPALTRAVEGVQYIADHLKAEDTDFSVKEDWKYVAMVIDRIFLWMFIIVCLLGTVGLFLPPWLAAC
Sequence (P12392 whole entry): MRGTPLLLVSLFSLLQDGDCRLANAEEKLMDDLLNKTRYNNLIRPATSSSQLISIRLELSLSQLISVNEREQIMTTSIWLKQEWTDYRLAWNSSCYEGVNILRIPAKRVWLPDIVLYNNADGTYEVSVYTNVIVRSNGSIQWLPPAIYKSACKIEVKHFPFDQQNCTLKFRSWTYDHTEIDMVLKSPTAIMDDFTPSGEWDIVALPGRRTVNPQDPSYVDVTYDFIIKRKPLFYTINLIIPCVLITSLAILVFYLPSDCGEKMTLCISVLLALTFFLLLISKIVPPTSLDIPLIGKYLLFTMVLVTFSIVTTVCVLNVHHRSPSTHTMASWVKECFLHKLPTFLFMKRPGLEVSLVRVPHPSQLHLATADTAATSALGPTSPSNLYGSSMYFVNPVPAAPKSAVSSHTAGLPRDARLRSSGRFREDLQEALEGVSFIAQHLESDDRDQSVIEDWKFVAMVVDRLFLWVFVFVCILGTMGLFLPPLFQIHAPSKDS
Assay Details: Displacement of [3H]epibatidine from recombinant rat alpha-4-beta-4 nAChr in HEK293 cell line
Format: cell-based
Condition Label: hek293
Please go through the items and note down their pKi.

Quick batch: pKi for everything below.
1. COc1ccc(C[N+]23CC[C@@H]4[C@@H]5/C(=C\N6c7ccccc7[C@@]78CC[N+]9(Cc%10ccc(OC)c(OC)c%10)CC%10=CCO[C@H]([C@@H]([C@H]67)[C@H]%10C[C@@H]89)N5c5ccccc5)[C@@H](C[C@@H]42)/C(=C\CO)C3)cc1OC.[Cl-].[Cl-] (some centres not stated)
2. OC/C=C1/C[N+]2(C3C=CCCC3)CC[C@@H]3[C@@H]4/C(=C\N5c6ccccc6[C@@]67CC[N+]8(C9C=CCCC9)CC9=CCO[C@H]([C@@H]([C@H]56)[C@H]9C[C@@H]78)N4c4ccccc4)[C@H]1C[C@@H]32.[Br-].[Br-] (some centres not stated)

Reply:
< 4
< 4

Give pKi for all compounds that follow.
1. O=[N+]([O-])c1ccc(C[N+]23CC[C@@H]4[C@@H]5[C@@H]6[C@@H](OCC=C(C2)[C@@H]6C[C@@H]43)N2c3ccccc3[C@@]34CC[N+]6(Cc7ccc([N+](=O)[O-])cc7)CC7=CCO[C@H]([C@@H]([C@H]23)[C@H]7C[C@@H]46)N5c2ccccc2)cc1.[Br-].[Br-] (some centres not stated)
2. COc1ccc(C[N+]23CC[C@@H]4[C@@H]5[C@@H]6[C@@H](OCC=C(C2)[C@@H]6C[C@@H]43)N2c3ccccc3[C@@]34CC[N+]6(Cc7ccc(OC)c(OC)c7)CC7=CCO[C@H]([C@@H]([C@H]23)[C@H]7C[C@@H]46)N5c2ccccc2)cc1OC.[Cl-].[Cl-] (some centres not stated)
3. C=CC[N+](C)(C)Cc1c2n(c3ccccc13)Cc1c(C[N+](C)(C)CC=C)c3ccccc3n1C2.[Br-].[Br-]

Reply:
["< 4", "< 4", "< 4"]

List the reported pKi of each compound below.
1. C/C=C/C[N+]12CC[C@@H]3[C@@H]4[C@@H]5[C@@H](OCC=C(C1)[C@@H]5C[C@@H]32)N1c2ccccc2[C@@]23CC[N+]5(C/C=C/C)CC6=CCO[C@H]([C@@H]([C@H]12)[C@H]6C[C@@H]35)N4c1ccccc1.[Br-].[Br-] (some centres not stated)
2. CC(=O)OCC[N+]12CC[C@@H]3[C@@H]4[C@@H]5[C@@H](OCC=C(C1)[C@@H]5C[C@@H]32)N1c2ccccc2[C@@]23CC[N+]5(CCOC(C)=O)CC6=CCO[C@H]([C@@H]([C@H]12)[C@H]6C[C@@H]35)N4c1ccccc1.[Br-].[Br-] (some centres not stated)

Reply:
["< 4", "< 4"]
